Target: wild type HCV NS3/4A 1b protease enzyme (Hepatitis C virus genotype 1b)
Construct: 10× stocks of NS3/4A protease enzyme from Bioenza (Mountain View, Calif.); purchased Bioenza (Mountain View, Calif.)
Assay: biochemical
Type: biochemical
Conditions: read-out: Inhibition, WT; WT enzyme, FRET assay
pIC50: −log10 of the molar value.
Listed here are compounds together with their documented pIC50.

| compound | pIC50 |
| --- | --- |
| C=C[C@@H]1C[C@]1(NC(=O)[C@@H]1C[C@@H](Oc2cc(-c3ccccc3)nc3cc(OC)ccc23)CN1C(=O)[C@H](CNC(=O)/C=C/C)NC(=O)OC(C)(C)C)C(=O)NS(=O)(=O)c1ccccc1 | > 8.00 |
| C=C[C@@H]1C[C@]1(NC(=O)[C@@H]1C[C@@H](Oc2cc(-c3ccccc3)nc3cc(OC)ccc23)CN1C(=O)[C@H](CCNC(=O)C(C)Br)NC(=O)OC(C)(C)C)C(=O)NS(=O)(=O)c1ccccc1 (some centres unmarked) | > 8.00 |
